Procedure Summary: Bioavailability in orally dosed Sprague-Dawley rat
Assay type: ADME, organism-based
Experimental Context: in vivo, po
Quick list: bioavailability per entry.
Endpoint Label: bioavailability

Compound: Cn1c(C(C)(C)O)nc2cc(Cl)c(Cl)cc21
Endpoint Label: bioavailability
Result: 100%

Compound: CC(C)(O)c1nc2cc(Cl)c(Cl)cc2[nH]1
Endpoint Label: bioavailability
Result: 100%

Compound: OC(c1nc2cc(Cl)c(Cl)cc2[nH]1)C(F)(F)F (stereo in doubt; 1)
Endpoint Label: bioavailability
Result: 132%

Compound: CCn1c(C(C)(O)CS(=O)(=O)CC)nc2cc(Cl)c(Cl)cc21 (stereo not given)
Endpoint Label: bioavailability
Result: 99%

Compound: CCSCC(C)(O)c1nc2cc(Cl)c(Cl)cc2n1CC (stereo not given)
Endpoint Label: bioavailability
Result: 15%

---

Procedure Summary: Half life in orally dosed Sprague-Dawley rat
Assay type: ADME, organism-based
Experimental Context: in vivo, po
Quick list: half-life per entry.

Compound: FC(F)(F)Cc1nc2cc(Cl)c(Cl)cc2[nH]1
half-life (h): 5.3
//
Compound: CCSCC(C)(O)c1nc2cc(Cl)c(Cl)cc2n1CC (stereo unspecified)
half-life (h): 1
//
Compound: CCn1c(C(C)(O)CS(=O)(=O)CC)nc2cc(Cl)c(Cl)cc21 (stereo unspecified)
half-life (h): 15
//
Compound: OC(c1nc2cc(Cl)c(Cl)cc2[nH]1)C(F)(F)F (stereo in doubt; 1)
half-life (h): 14.7
//
Compound: CC(C)(O)c1nc2cc(Cl)c(Cl)cc2[nH]1
half-life (h): 4
//
Compound: Cn1c(C(C)(C)O)nc2cc(Cl)c(Cl)cc21
half-life (h): 3
